- system tested: KRAS G12C (Homo sapiens, UniProt P01116, G12C)
- Sequence (P01116 1-188 isoform P01116-2 G12C): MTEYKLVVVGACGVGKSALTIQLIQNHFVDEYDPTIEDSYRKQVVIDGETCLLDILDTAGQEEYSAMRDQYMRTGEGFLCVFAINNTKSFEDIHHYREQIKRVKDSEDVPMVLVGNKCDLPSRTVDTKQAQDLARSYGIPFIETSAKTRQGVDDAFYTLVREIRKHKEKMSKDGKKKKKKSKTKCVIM
- measurement protocol: GDP-GTP exchange assay (fluorescence based guanine nucleotide exchange, bodipy-GDP for GppNHp, SOS1)
- condition context: bodipy-loaded KRAS G12C, 2 hours pre-incubation with inhibitor, read-out: G12C_exchange (KRAS_G12C exchange assay IC50)
IC50 by entry:
assay metric: IC50

molecule="C=CC(=O)N1CC(Cn2c(=O)c(=O)n(-c3c(CC)cccc3CC)c3nc(-c4ccccc4F)c(Cl)cc32)C1 [Example 4]" measured_result="100 to 1000 nM"
molecule="C=CC(=O)N1CC(F)(Cn2c(=O)c(=O)n(-c3c(C(C)C)cccc3C(C)C)c3nc(-c4c(O)cccc4F)c(Cl)cc32)C1 [Example 12]" measured_result="≤ 100 nM"
molecule="C=CC(=O)N1CC(F)(Cn2c(=O)c(=O)n(-c3c(C(C)C)cccc3C(C)C)c3nc(-c4cc(O)cc5ccccc45)c(Cl)cc32)C1 [Example 14]" measured_result="≤ 100 nM"
molecule="C=CC(=O)N1CC(F)(Cn2c(=O)c(=O)n(-c3c(C(C)C)cccc3C(C)C)c3nc(-c4cccc5ccccc45)c(Cl)cc32)C1 [Example 11]" measured_result="≤ 100 nM"
molecule="C=CC(=O)N1CC(O)(Cn2c(=O)c(=O)n(-c3c(C)ccnc3C(C)C)c3nc(-c4c(O)cccc4F)c(Cl)cc32)C1 [Example 42]" measured_result="≤ 100 nM"
molecule="C=CC(=O)N1CC(F)(Cn2c(=O)c(=O)n(-c3c(C(C)C)cccc3C(C)C)c3nc(-c4ccccc4F)c(Cl)cc32)C1 [Example 10]" measured_result="≤ 100 nM"

====

Some compounds, each annotated with its measured pIC50.
- system tested: KRAS G12C (Homo sapiens, UniProt P01116, G12C)
- measurement protocol: GDP-GTP exchange assay (fluorescence based guanine nucleotide exchange, bodipy-GDP for GppNHp, SOS1)
- condition context: bodipy-loaded KRAS G12C, 2 hours pre-incubation with inhibitor, read-out: G12C_exchange (KRAS_G12C exchange assay IC50)
pIC50: −log10 of the molar value.
assay metric: pIC50

smiles_input=[2H]C([2H])(n1c(=O)c(=O)n(-c2c(C)ccnc2C(C)C)c2nc(-c3c(O)cccc3Cl)c(Cl)cc21)C1(F)CN(C(=O)C=C)C1 measured_result="≥ 7.00"
smiles_input=C=CC(=O)N1CC(O)(Cn2c(=O)c(=O)n(-c3c(C)ccnc3C(C)C)c3nc(-c4ccccc4F)c(Cl)cc32)C1 measured_result="6.00 to 7.00"
smiles_input=C=CC(=O)N1CC(F)(Cn2c(=O)c(=O)n(-c3c(C)ccnc3C(C)C)c3nc(-c4cccc5cn[nH]c45)c(Cl)cc32)C1 measured_result="6.00 to 7.00"
smiles_input=C=CC(=O)N1CC(Cn2c(=O)c(=O)n(-c3c(C)ccnc3C(C)C)c3nc(-c4c(N)cccc4F)c(Cl)cc32)(OC)C1 measured_result="6.00 to 7.00"
smiles_input=C=CC(=O)N1CC(F)(Cn2c(=O)c(=O)n(-c3c(C)ccnc3C(C)C)c3nc(-c4c(F)ccc(Cl)c4O)c(Cl)cc32)C1 measured_result="≥ 7.00"
smiles_input=C=C(F)C(=O)N1CC(F)(Cn2c(=O)c(=O)n(-c3c(C(C)C)ccnc3C(C)C)c3nc(-c4c(O)cccc4Cl)c(Cl)cc32)C1 measured_result="≥ 7.00"
smiles_input=C=CC(=O)N1CC(F)(Cn2c(=O)c(=O)n(-c3c(C)ccnc3C(C)C)c3nc(-c4c(O)cccc4Cl)c(Cl)cc32)C1 measured_result="≥ 7.00"
smiles_input=[2H]C([2H])(n1c(=O)c(=O)n(-c2c(C)ccnc2C(C)C)c2nc(-c3c(O)cccc3Cl)c(Cl)cc21)C1(F)CN(C(=O)C(=C)F)C1 measured_result="≥ 7.00"
smiles_input=C=CC(=O)N1CC(O)(Cn2c(=O)c(=O)n(-c3c(C(C)C)cccc3C(C)C)c3nc(-c4ccccc4F)c(Cl)cc32)C1 measured_result="≥ 7.00"
smiles_input=C=CC(=O)N1CC(Cn2c(=O)c(=O)n(-c3c(C)ccnc3C(C)C)c3nc(-c4ccccc4F)c(Cl)cc32)(OC)C1 measured_result="6.00 to 7.00"
smiles_input=C=CC(=O)N1CC(F)(Cn2c(=O)c(=O)n(-c3c(C)ccnc3C(C)C)c3nc(-c4c(O)cccc4F)c(Cl)cc32)C1 measured_result="≥ 7.00"
smiles_input=[2H]C([2H])(n1c(=O)c(=O)n(-c2c(C)ccnc2C(C)C)c2nc(-c3ccnc(C)c3Cl)c(Cl)cc21)C1(F)CN(C(=O)C=C)C1 measured_result="6.00 to 7.00"
smiles_input=C=CC(=O)N1CC(Cn2c(=O)c(=O)n(-c3c(C)ccnc3C(C)C)c3nc(-c4c(O)cccc4F)c(Cl)cc32)(OC)C1 measured_result="6.00 to 7.00"
